Test system: NCI-H1993
Assay: relative viability (nuclei count vs DMSO), 5 days (fraction); higher = more cells survive
Details: first compound 0.04 µM
PROPERTY LABEL: relative viability
# respond with the number and nothing more

Query: What relative viability value was documented for this compound, COc1cc(N2CCC(C(N)=O)CC2)ccc1Nc1nc(N)c(Cl)c(Nc2ccccc2S(=O)(=O)C(C)C)n1 [HG-5-88-01] + Cc1cc(Nc2cc(N3CCN(C)CC3)nc(Sc3ccc(NC(=O)C4CC4)cc3)n2)n[nH]1 [Tozasertib] (partner 0.1 µM) ?
Reply: 0.607

Query: Could you tell me which relative viability is on file for COc1cc(N2CCC(C(N)=O)CC2)ccc1Nc1nc(N)c(Cl)c(Nc2ccccc2S(=O)(=O)C(C)C)n1 [HG-5-88-01] + CC(=O)Nc1cccc(-n2c(=O)n(C3CC3)c(=O)c3c(Nc4ccc(I)cc4F)n(C)c(=O)c(C)c32)c1 [Trametinib] (partner 0.02 µM) ?
Reply: 0.413

Query: # relative viability lookup, item COc1cc(N2CCC(C(N)=O)CC2)ccc1Nc1nc(N)c(Cl)c(Nc2ccccc2S(=O)(=O)C(C)C)n1 [HG-5-88-01] + Nc1nc2[nH]cc(CCc3ccc(C(=O)N[C@@H](CCC(=O)O)C(=O)O)cc3)c2c(=O)[nH]1 [Pemetrexed] (partner 0.2 µM)
Reply: 0.56

Query: Please give the measured relative viability for this compound: COc1cc(N2CCC(C(N)=O)CC2)ccc1Nc1nc(N)c(Cl)c(Nc2ccccc2S(=O)(=O)C(C)C)n1 [HG-5-88-01] + O=C(CCCCCCC(=O)Nc1ccccc1)NO [Vorinostat] (partner 1 µM)
Reply: 0.669

###

Please respond with reported relative viability for every item in the list.
System: LU99A
Assay: relative viability (nuclei count vs DMSO), 5 days (fraction); higher = more cells survive
Conditions: first compound 8 µM
// response body must contain only the number

Query: Reported relative viability for LU99A, given CCCCCCCCCCCC1=C(O)C(=O)C=C(O)C1=O [Embelin] + CC(=O)Nc1cccc(-n2c(=O)n(C3CC3)c(=O)c3c(Nc4ccc(I)cc4F)n(C)c(=O)c(C)c32)c1 [Trametinib] (partner 0.02 µM) ?
Reply: 0.526

Query: Notebook: pull reported relative viability for LU99A, entry CCCCCCCCCCCC1=C(O)C(=O)C=C(O)C1=O [Embelin] + Nc1nc2[nH]cc(CCc3ccc(C(=O)N[C@@H](CCC(=O)O)C(=O)O)cc3)c2c(=O)[nH]1 [Pemetrexed] (partner 0.2 µM)
Reply: 0.192

Query: Fill in the recorded relative viability for this compound, with LU99A as test system: CCCCCCCCCCCC1=C(O)C(=O)C=C(O)C1=O [Embelin] + Cc1cc(Nc2cc(N3CCN(C)CC3)nc(Sc3ccc(NC(=O)C4CC4)cc3)n2)n[nH]1 [Tozasertib] (partner 0.1 µM)
Reply: 0.264

Query: # query: relative viability | item CCCCCCCCCCCC1=C(O)C(=O)C=C(O)C1=O [Embelin] + Nc1ncn([C@H]2C[C@H](O)[C@@H](CO)O2)c(=O)n1 [Decitabine] (partner 2 µM) | system: LU99A
Reply: 0.91

Query: What value of relative viability on LU99A does CCCCCCCCCCCC1=C(O)C(=O)C=C(O)C1=O [Embelin] + Cc1nc(Nc2ncc(C(=O)Nc3c(C)cccc3Cl)s2)cc(N2CCN(CCO)CC2)n1 [Dasatinib] (partner 0.075 µM) have?
Reply: 0.515

Query: Return relative viability measured with LU99A given this compound: CCCCCCCCCCCC1=C(O)C(=O)C=C(O)C1=O [Embelin] + C[C@]1(O)C[C@@H](c2nc(-c3ccc4ccc(-c5ccccc5)nc4c3)c3c(N)nccn32)C1 [Linsitinib] (partner 1 µM)
Reply: 0.472

Query: Give recorded relative viability with LU99A for the following compound: CCCCCCCCCCCC1=C(O)C(=O)C=C(O)C1=O [Embelin] + O=C(CCCCCCC(=O)Nc1ccccc1)NO [Vorinostat] (partner 1 µM)
Reply: 0.336

Query: Request body: readout relative viability, system LU99A, query CCCCCCCCCCCC1=C(O)C(=O)C=C(O)C1=O [Embelin] + C[C@@H](Oc1cc(-c2cnn(C3CCNCC3)c2)cnc1N)c1c(Cl)ccc(F)c1Cl [Crizotinib] (partner 1 µM) . Return the value.
Reply: 0.606

Query: Lab request: please report relative viability under test system LU99A for CCCCCCCCCCCC1=C(O)C(=O)C=C(O)C1=O [Embelin] + CC(C)C[C@H](NC(=O)[C@H](Cc1ccccc1)NC(=O)c1cnccn1)B(O)O [Bortezomib] (partner 0.002 µM)
Reply: 1.07

###

Task for the reader: assign each of the following molecules its reported relative viability.
Test system: LXF-289
Test: relative viability (nuclei count vs DMSO), 5 days (fraction); higher = more cells survive
Settings: first compound 0.4 µM
Please reply with the value in numeric form only.

Query: What does the data say about its relative viability? Entry: C[C@@H]1CN(CC(=O)Nc2ccc3c(c2)Cc2cccc(-c4cc(=O)cc(N5CCOCC5)o4)c2S3)C[C@H](C)O1 + Nc1ncn([C@H]2C[C@H](O)[C@@H](CO)O2)c(=O)n1 [Decitabine] (partner 2 µM)
Reply: 0.419

Query: What does the record list as relative viability for Clc1ccc(Nc2nnc(Cc3ccncc3)c3ccccc23)cc1 [Vatalanib] + O=C(CCCCCCC(=O)Nc1ccccc1)NO [Vorinostat] (partner 1 µM) ?
Reply: 0.801

Query: Would you mind telling me what relative viability value was observed for Clc1ccc(Nc2nnc(Cc3ccncc3)c3ccccc23)cc1 [Vatalanib] + COc1cc2c(Oc3ccc(NC(=O)C4(C(=O)Nc5ccc(F)cc5)CC4)cc3F)ccnc2cc1OCCCN1CCOCC1 [Foretinib] (partner 0.25 µM) ?
Reply: 0.98

Query: For the molecule C[C@@H]1CN(CC(=O)Nc2ccc3c(c2)Cc2cccc(-c4cc(=O)cc(N5CCOCC5)o4)c2S3)C[C@H](C)O1 + O=C(c1cc(Cc2n[nH]c(=O)c3ccccc23)ccc1F)N1CCN(C(=O)C2CC2)CC1 [Olaparib] (partner 8 µM) , what relative viability is on record?
Reply: 1.21

Query: Look up relative viability for this molecule: C[C@@H]1CN(CC(=O)Nc2ccc3c(c2)Cc2cccc(-c4cc(=O)cc(N5CCOCC5)o4)c2S3)C[C@H](C)O1 + Cc1nc(Nc2ncc(C(=O)Nc3c(C)cccc3Cl)s2)cc(N2CCN(CCO)CC2)n1 [Dasatinib] (partner 0.075 µM)
Reply: 0.203

###

Assign relative viability to each entry below.
System: NCI-H1915
Test: relative viability (nuclei count vs DMSO), 5 days (fraction); higher = more cells survive
Settings: first compound 2.53 µM

Query: Which value of relative viability has been reported for CCCCCCCCCCCC1=C(O)C(=O)C=C(O)C1=O [Embelin] + CC(=O)c1c(C)c2cnc(Nc3ccc(N4CCNCC4)cn3)nc2n(C2CCCC2)c1=O [Palbociclib] (partner 0.5 µM) in the records?
Reply: 0.583

Query: Return reported relative viability; argument: CCCCCCCCCCCC1=C(O)C(=O)C=C(O)C1=O [Embelin] + N=C(N)NC(=N)NCCc1ccccc1 [Phenformin] (partner 250 µM)
Reply: 0.364

Query: Can you share its relative viability? I mean this compound: CCCCCCCCCCCC1=C(O)C(=O)C=C(O)C1=O [Embelin] + Cc1nc(NC(=O)N2CCC[C@H]2C(N)=O)sc1-c1ccnc(C(C)(C)C(F)(F)F)c1 [Alpelisib] (partner 2 µM)
Reply: 1.11

Query: Given the entry CCCCCCCCCCCC1=C(O)C(=O)C=C(O)C1=O [Embelin] + C[C@]1(O)C[C@@H](c2nc(-c3ccc4ccc(-c5ccccc5)nc4c3)c3c(N)nccn32)C1 [Linsitinib] (partner 1 µM) , report its measured relative viability.
Reply: 1.13

###

Test system: NCI-H1734
Test: relative viability (nuclei count vs DMSO), 5 days (fraction); higher = more cells survive
Conditions: first compound 0.4 µM
I'd appreciate it if you could supply relative viability values for the items below.

Query: What is its relative viability for NCI-H1734? Entry: COc1cc(N2CCC(C(N)=O)CC2)ccc1Nc1nc(N)c(Cl)c(Nc2ccccc2S(=O)(=O)C(C)C)n1 [HG-5-88-01] + COc1cccc2cc(-c3nc([C@H]4CC[C@H](C(=O)O)CC4)n4ncnc(N)c34)[nH]c12 [OSI-027] (partner 0.5 µM)
Reply: 0.394

Query: Checklist item: relative viability tested on NCI-H1734, entry COc1cc(N2CCC(C(N)=O)CC2)ccc1Nc1nc(N)c(Cl)c(Nc2ccccc2S(=O)(=O)C(C)C)n1 [HG-5-88-01] + CS(=O)(=O)N1CCN(Cc2cc3nc(-c4cccc5[nH]ncc45)nc(N4CCOCC4)c3s2)CC1 [Pictilisib] (partner 1 µM) , value?
Reply: 0.411

Query: What reported relative viability corresponds to Clc1ccc(Nc2nnc(Cc3ccncc3)c3ccccc23)cc1 [Vatalanib] + CS(=O)(=O)CCNCc1ccc(-c2ccc3ncnc(Nc4ccc(OCc5cccc(F)c5)c(Cl)c4)c3c2)o1 [Lapatinib] (partner 2 µM) on NCI-H1734?
Reply: 1.11

Query: For the record COc1cc(N2CCC(C(N)=O)CC2)ccc1Nc1nc(N)c(Cl)c(Nc2ccccc2S(=O)(=O)C(C)C)n1 [HG-5-88-01] + Nc1ncn([C@H]2C[C@H](O)[C@@H](CO)O2)c(=O)n1 [Decitabine] (partner 2 µM) , what value of relative viability is listed for NCI-H1734?
Reply: 0.511
